tested on: Pdist-1; assay: Antibiotic susceptibility test, broth dilution MIC; assay type: cell-based, Parabacteroides distasonis; details: Parabacteroides distasonis; broth dilution, anaerobic, 37° C., 46-48 h; read-out: MIC against Pdist-1
Examples of compounds with documented MIC follow.

Some entries whose results are on file:
{"columns": ["COMPOUND", "MIC"],
 "data": [
  ["CC1(C)S[C@@H]2[C@H](NC(=O)[C@H](N)c3ccccc3)C(=O)N2[C@H]1C(=O)O [Ampicillin]", "8 µg/mL"],
  ["CN(C)[C@@H]1C(O)=C(C(N)=O)C(=O)[C@@]2(O)C(O)=C3C(=O)c4c(O)cccc4[C@@](C)(O)[C@H]3C[C@@H]12 [Tetracycline]", "8 µg/mL"],
  ["CC[C@H]1OC(=O)[C@H](C)[C@@H](O[C@H]2C[C@@](C)(OC)[C@@H](O)[C@H](C)O2)[C@H](C)[C@@H](O[C@@H]2O[C@H](C)C[C@H](N(C)C)[C@H]2O)[C@](C)(O)C[C@@H](C)C(=O)[C@H](C)[C@@H](O)[C@]1(C)O [Erythromycin]", "32 µg/mL"],
  ["[H]/N=C(/N)N[C@H]1[C@H](O)[C@@H](O)[C@H](O[C@@H]2O[C@@H](C)[C@](O)(C=O)[C@H]2O[C@@H]2O[C@@H](CO)[C@H](O)[C@@H](O)[C@@H]2NC)[C@@H](N/C(N)=N\\[H])[C@@H]1O [Streptomycin]", "< 0.125 µg/mL"],
  ["CO/N=C(\\C(=O)N[C@@H]1C(=O)N2C(C(=O)O)=C(CSc3nc(=O)c(=O)[nH]n3C)CS[C@H]12)c1csc(N)n1 [Ceftriaxone]", "16 µg/mL"]
]}

Request: Form field: reported MIC of C[C@@H](O)[C@H]1C(=O)N2C(C(=O)O)=C(SCCN=CN)C[C@H]12 [Imipenem]
Response: 16 µg/mL

----------
tested on: Pdist-1; experiment: Antibiotic susceptibility test, broth dilution MIC; type: cell-based, Parabacteroides distasonis; conditions: Parabacteroides distasonis; broth dilution, anaerobic, 37° C., 46-48 h; read-out: MIC against Pdist-1
RECORDED ENDPOINT: MIC (µg/mL)
Write the number in µg/mL without appending the unit.

{"columns": ["COMPOUND STRUCTURE STRING", "MIC, µg/mL"],
 "data": [
  ["C[C@H]1COc2c(N3CCN(C)CC3)c(F)cc3c(=O)c(C(=O)O)cn1c23", 8]
]}

Request: Form field: reported MIC of "CCC[C@@H]1C[C@@H](C(=O)N[C@@H]([C@H]2O[C@H](SC)[C@H](O)[C@@H](O)[C@H]2O)[C@H](C)Cl)N(C)C1"
Response: 16

----------
Examples of compounds with documented MIC follow.
test system: Eaviu-1; test: Antibiotic susceptibility test, broth dilution MIC; assay type: cell-based, Enterococcus avium; conditions: Enterococcus avium; broth dilution, anaerobic, 37° C., 46-48 h; read-out: MIC against Eaviu-1
Write the number in µg/mL without appending the unit.

Some entries whose results are on file:
{"columns": ["COMPOUND", "ASSAY SYSTEM", "MIC (µg/mL)"],
 "data": [
  ["O=C(N[C@H](CO)[C@H](O)c1ccc([N+](=O)[O-])cc1)C(Cl)Cl [Chloramphenicol]", "Eaviu-1", 128],
  ["CC1(C)S[C@@H]2[C@H](NC(=O)[C@H](N)c3ccccc3)C(=O)N2[C@H]1C(=O)O [Ampicillin]", "Eaviu-1", 4]
]}

Request: // lookup MIC | system=Eaviu-1 | key= CC[C@H]1OC(=O)[C@H](C)[C@@H](O[C@H]2C[C@@](C)(OC)[C@@H](O)[C@H](C)O2)[C@H](C)[C@@H](O[C@@H]2O[C@H](C)C[C@H](N(C)C)[C@H]2O)[C@](C)(O)C[C@@H](C)C(=O)[C@H](C)[C@@H](O)[C@]1(C)O [Erythromycin]
Response: 0.25

Reference source for all entries: patent US20250352587A1
